B1: NR2F2 (parent)
chain: NIPFFPDLQITDQVALLRLTWSEL

# Variants of: B1
# experiment-description: protein stability index of a GFP-peptide fusion (GPS, HEK-293T) (PSI 1-6); higher = more stable;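 further: lentivirally expressed fusions sorted by FACS into six bins by GFP to DsRed ratio, PSI derived from sequencing read proportions per bin multiplied by bin number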
# experimental-conditions: c terminus: a fixed tail appended
Record true (1) whenever protein stability index is at 3 or higher; record false (0) when lower.

Worked examples follow.
NIPFFPDLQITPQVALLRLTWSEL [D12P]; true (1)
NIPFFPDLQITDQVALLRLTGSEL [W21G]; false (0)
NIPFFPDMQITDQVALLRLTWSEL [L8M]; false (0)
NIPGFPDLQITDQVALLRLTWSEL [F4G]; false (0)
NIPFFPDLPITDQVALLRLTWSEL [Q9P]; false (0)

Please look at the following variant next.
Request: Test whether the variant NIVFFPDLQITDQVALLRLTWSEL [P3V] records protein stability index of 3 or higher.
Response: true (1)
